- target under test: T1, Axl protein (human, UniProt P30530 26-451)
- T1 construct: extracellular domain; also called human Axl; hAxl
- T1 sequence (looked up): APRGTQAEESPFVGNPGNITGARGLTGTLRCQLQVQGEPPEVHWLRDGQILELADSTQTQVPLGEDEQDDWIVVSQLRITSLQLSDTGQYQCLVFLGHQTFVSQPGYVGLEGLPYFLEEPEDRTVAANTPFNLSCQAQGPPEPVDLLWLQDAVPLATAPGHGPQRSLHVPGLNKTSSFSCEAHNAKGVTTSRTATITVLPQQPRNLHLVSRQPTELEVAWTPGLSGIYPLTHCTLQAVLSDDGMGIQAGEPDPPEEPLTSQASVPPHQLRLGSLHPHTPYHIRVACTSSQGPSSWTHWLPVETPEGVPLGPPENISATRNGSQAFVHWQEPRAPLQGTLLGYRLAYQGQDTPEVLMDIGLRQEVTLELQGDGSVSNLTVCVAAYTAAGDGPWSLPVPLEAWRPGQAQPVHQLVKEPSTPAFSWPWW
- run description: ELISA, 1:9 dilution, pH 6.0 over pH 7.4
Label not fulfilled if Affinity ELISA CPE mutant ratio (1:9, pH 6.0/7.4) falls below 3 ratio; label fulfilled in every other case.

LC-A051I (antibody, V domains shown) VH: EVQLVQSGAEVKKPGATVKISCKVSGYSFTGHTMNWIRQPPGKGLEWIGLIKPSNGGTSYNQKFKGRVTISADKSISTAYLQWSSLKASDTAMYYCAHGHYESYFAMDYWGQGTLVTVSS VL: DIQMTQSPSSLSASVGDRVTITCKASQDVSSAVAWYQQKPGQAPRLLIYWISTRHTGVPSRFSGSGSGTEFTLTISSLQPDDFATYYCQEHFSTPLTFGQGTKVEIK	not fulfilled
LC-F092C (antibody, V domains shown) VH: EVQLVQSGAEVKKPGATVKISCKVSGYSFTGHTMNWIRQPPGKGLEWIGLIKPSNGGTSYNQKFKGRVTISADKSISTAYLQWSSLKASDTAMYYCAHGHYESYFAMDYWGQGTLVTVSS VL: DIQMTQSPSSLSASVGDRVTITCKASQDVSSAVAWYQQKPGQAPRLLIYWASTRHTGVPSRFSGSGSGTEFTLTISSLQPDDFATYYCQEHCSTPLTFGQGTKVEIK	fulfilled
LC-A032L (antibody, V domains shown) VH: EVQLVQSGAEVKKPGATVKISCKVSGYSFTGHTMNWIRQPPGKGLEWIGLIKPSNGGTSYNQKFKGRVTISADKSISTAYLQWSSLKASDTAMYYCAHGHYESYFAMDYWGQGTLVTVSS VL: DIQMTQSPSSLSASVGDRVTITCKASQDVSSLVAWYQQKPGQAPRLLIYWASTRHTGVPSRFSGSGSGTEFTLTISSLQPDDFATYYCQEHFSTPLTFGQGTKVEIK	not fulfilled
LC-H091Y (antibody, V domains shown) VH: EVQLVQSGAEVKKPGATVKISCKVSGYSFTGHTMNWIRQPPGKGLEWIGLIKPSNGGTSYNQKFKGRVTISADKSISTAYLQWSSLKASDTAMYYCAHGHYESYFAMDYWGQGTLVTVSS VL: DIQMTQSPSSLSASVGDRVTITCKASQDVSSAVAWYQQKPGQAPRLLIYWASTRHTGVPSRFSGSGSGTEFTLTISSLQPDDFATYYCQEYFSTPLTFGQGTKVEIK	fulfilled
LC-L096G (antibody, V domains shown) VH: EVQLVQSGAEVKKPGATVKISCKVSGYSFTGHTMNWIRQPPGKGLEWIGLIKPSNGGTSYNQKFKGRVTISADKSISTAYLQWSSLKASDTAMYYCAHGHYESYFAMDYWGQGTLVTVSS VL: DIQMTQSPSSLSASVGDRVTITCKASQDVSSAVAWYQQKPGQAPRLLIYWASTRHTGVPSRFSGSGSGTEFTLTISSLQPDDFATYYCQEHFSTPGTFGQGTKVEIK	not fulfilled
LC-A034D (antibody, V domains shown) VH: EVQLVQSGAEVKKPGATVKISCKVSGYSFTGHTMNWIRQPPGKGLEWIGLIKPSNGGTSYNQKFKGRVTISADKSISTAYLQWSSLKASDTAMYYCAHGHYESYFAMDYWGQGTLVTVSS VL: DIQMTQSPSSLSASVGDRVTITCKASQDVSSAVDWYQQKPGQAPRLLIYWASTRHTGVPSRFSGSGSGTEFTLTISSLQPDDFATYYCQEHFSTPLTFGQGTKVEIK	not fulfilled
